# Experimental target: BIR3 domain of XIAP (Homo sapiens, UniProt P98170)
# Sequence (P98170 253-347): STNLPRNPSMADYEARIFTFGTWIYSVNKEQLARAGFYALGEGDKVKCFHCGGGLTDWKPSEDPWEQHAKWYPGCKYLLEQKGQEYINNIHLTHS
# Test protocol: Isothermal titration calorimetry (ITC) against the BIR3 domain of XIAP
# Type: binding
# Set-up: human BIR3 domain of XIAP fragment (residues 253-347) and an N-terminal His tag; His tag (N); made in house; host or cells: E. coli BL21(DE3) Gold
# Study conditions: Example 1; read-out: Kd
Assay readout: pKd
Interpret pKd as the negative base-10 log of the concentration measured in mol/L.

Query: Which pKd is reported for this compound? CN[C@@H](C)C(=O)N[C@H](C(=O)N1CCC[C@H]1C(=O)Nc1snnc1-c1ccccc1)C1CCCCC1
Reply: 7.02

----------
# Experimental target: BIR3 domain of XIAP (Homo sapiens, UniProt P98170)
# Test protocol: biochemical
# Study conditions: IC50, Bir3 domain of XIAP, Example 1; displacing a biotin-labeled AVPF reference peptide
pIC50: −log10 of the molar value.
Assay readout: pIC50

Query: Which pIC50 is reported for this molecule? CN[C@@H](C)C(=O)N[C@H](C(=O)N1CCC[C@H]1C(=O)Nc1snnc1-c1ccccc1)C1CCCCC1
Reply: ~7.60

----------
# Experimental target: BIR3 domain of cIAP1 (Homo sapiens, UniProt Q13490)
# Sequence (Q13490 266-352 limits assumed): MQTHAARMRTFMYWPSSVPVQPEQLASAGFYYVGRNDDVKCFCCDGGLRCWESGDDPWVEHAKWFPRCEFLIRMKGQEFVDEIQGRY
# Study conditions: read-out: DELFIA IC50 (nM) cIAP1-BIR3; 2-h incubation, Table 8
Assay readout: IC50

Query: Which IC50 is reported for this compound? CNC(C)C(=O)NC(CNC(=O)c1ccc(S(=O)(=O)F)cc1)C(=O)N1CCCC1C(=O)NC1Cc2ccccc2C1 (stereo not shown) [Compound 142B2, MeHN-A-Dap(4-FSB)-P-(2-aminoindan)]
Reply: ~1000 nM

----------
# Experimental target: BIR3 domain of cIAP1 (Homo sapiens, UniProt Q13490)
# Study conditions: read-out: DELFIA IC50 (nM) cI4P1-BIR3 6-h pre, 2-h; 6-h pre, 2-h, Table 10
Assay readout: IC50

Query: Which IC50 is reported for this molecule? CNC(C)C(=O)NC(Cc1ccc(OS(=O)(=O)F)cc1)C(=O)N1CCCC1C(=O)NC1CCc2ccccc21 (stereo not shown) [Compound 142C3, MeHN-A-F(OSO2F)-1-P-aminoindan]
Reply: 56.9 nM

----------
# Experimental target: BIR3 domain of cIAP2 (Homo sapiens, UniProt Q13489)
# Sequence (Q13489 245-337 limits assumed): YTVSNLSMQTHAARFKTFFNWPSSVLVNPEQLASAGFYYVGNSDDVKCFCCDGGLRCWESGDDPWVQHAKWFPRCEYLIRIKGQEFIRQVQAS
# Study conditions: read-out: DELFIA IC50 (nM) cIAP2-BIR3; 2-h incubation, Table 8
Assay readout: IC50

Query: Which IC50 is reported for this molecule? CNC(C)C(=O)NC(CNC(=O)c1ccc(S(=O)(=O)F)cc1)C(=O)N1CCCC1C(=O)NC1Cc2ccccc2C1 (stereo not shown)
Reply: ~1300 nM

----------
# Experimental target: BIR3 domain of XIAP (Homo sapiens, UniProt P98170)
# Test protocol: biochemical
# Study conditions: DELFIA IC50 (nM) XIAP-BIR3, 2-h incubation, Table 8
Assay readout: IC50 (nM)
Provide only the numeric value, understood in nM.

Query: Please state recorded IC50 (tested on BIR3 domain of XIAP (Homo sapiens, UniProt P98170)) of CN[C@@H](C)C(=O)N[C@H](C(=O)N1CCC[C@H]1C(=O)Nc1snnc1-c1ccccc1)C1CCCCC1
Reply: 21.4

----------
# Experimental target: BIR3 domain of XIAP (Homo sapiens, UniProt P98170)
# Test protocol: biochemical
# Study conditions: IC50 (nM) by DELFIA assay XIAP, Table 6
Assay readout: IC50 (nM)
Provide only the numeric value, understood in nM.

Query: Which IC50 is reported for this molecule? CN[C@@H](C)C(=O)N[C@H](C(=O)N1CCC[C@H]1C(=O)Nc1snnc1-c1ccccc1)C1CCCCC1
Reply: 22.1

----------
# Experimental target: BIR3 domain of XIAP (Homo sapiens, UniProt P98170)
# Study conditions: read-out: DELFIA IC50 (nM) XIAP-BIR3; 2-h incubation, Table 8
Assay readout: IC50 (nM)
Provide only the numeric value, understood in nM.

Query: Please state recorded IC50 (tested on BIR3 domain of XIAP (Homo sapiens, UniProt P98170)) of CNC(C)C(=O)NC(CNC(=O)c1ccc(S(=O)(=O)F)cc1)C(=O)N1CCCC1C(=O)NC1Cc2ccccc2C1 (stereo not shown)
Reply: 18.8

----------
# Experimental target: BIR3 domain of cIAP2 (Homo sapiens, UniProt Q13489)
# Study conditions: read-out: DELFIA IC50 (nM) cIAP2-BIR3 6-h pre, 2-h; 6-h pre, 2-h, Table 10
Assay readout: IC50 (nM)
Provide only the numeric value, understood in nM.

Query: Which IC50 is reported for this compound? CNC(C)C(=O)NC(Cc1ccc(OS(=O)(=O)F)cc1)C(=O)N1CCCC1C(=O)NC1CCc2ccccc21 (stereo not shown) [Compound 142C3, MeHN-A-F(OSO2F)-1-P-aminoindan]
Reply: 144

----------
# Experimental target: BIR3 domain of cIAP2 (Homo sapiens)
# Study conditions: read-out: DELFIA IC50 (nM) cIAP2-BIR3 2-h; 2-h, Table 10
Assay readout: IC50 (nM)
Provide only the numeric value, understood in nM.

Query: Which IC50 is reported for this compound? CNC(C)C(=O)NC(Cc1ccc(OS(=O)(=O)F)cc1)C(=O)N1CCCC1C(=O)NC1CCc2ccccc21 (stereo not shown)
Reply: 96

----------
# Experimental target: BIR3 domain of XIAP (Homo sapiens)
# Test protocol: biochemical
# Study conditions: DELFIA IC50 (nM) XI4P-BIR3 2-h, 2-h, Table 10
Assay readout: IC50 (nM)
Provide only the numeric value, understood in nM.

Query: Which IC50 is reported for this compound? CN[C@@H](C)C(=O)N[C@H](C(=O)N1CCC[C@H]1C(=O)Nc1snnc1-c1ccccc1)C1CCCCC1 [GDC-0152]
Reply: 21.4

----------
# Experimental target: BIR3 domain of XIAP (Homo sapiens)
# Study conditions: read-out: DELFIA IC50 (nM) XIAP-BIR3; 2-h incubation, Table 9
Assay readout: IC50 (nM)
Provide only the numeric value, understood in nM.

Query: Which IC50 is reported for this molecule? C=CS(=O)(=O)c1ccc(C(=O)NC[C@H](NC(=O)[C@H](C)NC)C(=O)N2CCC[C@H]2C(=O)NC2Cc3ccccc3C2)cc1
Reply: 49.8

----------
# IC50 listing for each entry below
# Experimental target: BIR3 domain of cIAP2 (Homo sapiens)
# Study conditions: read-out: DELFIA IC50 (nM) cIAP2-BIR3; 2-h incubation, Table 9
Where a SMILES comes first, the peptide text is derived from it. [ ]: non-standard residue; d: D form. Tyr(SO2F) = N[C@@H](Cc1ccc(OS(=O)(=O)F)cc1)C(=O)O; NMeA = CN[C@@H](C)C(=O)O
Provide only the numeric value, understood in nM.

Query: Which IC50 is reported for this compound? CN[C@@H](C)C(=O)N[C@@H](Cc1ccc(OS(=O)(=O)F)cc1)C(=O)N1CCC[C@H]1C(=O)NC1Cc2ccccc2C1
Reply: 864

Query: Which IC50 is reported for this compound? CN[C@@H](C)C(=O)N[C@@H](Cc1ccc(OS(=O)(=O)F)cc1)C(=O)N1CCC[C@H]1C(=O)N[C@@H](Cc1ccccc1)C(N)=O [Compound 142B9, MeHN-A-F(OSO2F)-P-F-CONH2] (H-[NMeA][Tyr(SO2F)]PF-NH2)
Reply: 343

Query: Which IC50 is reported for this compound? C=CS(=O)(=O)c1ccc(C(=O)NC[C@H](NC(=O)[C@H](C)NC)C(=O)N2CCC[C@H]2C(=O)NC2Cc3ccccc3C2)cc1
Reply: 1.2
